Attribution: patent US8436006B2

Molecular target: β-secretase (BACE) (Homo sapiens)
Construct: purchased Panvera
Sequence (P56817 46-501): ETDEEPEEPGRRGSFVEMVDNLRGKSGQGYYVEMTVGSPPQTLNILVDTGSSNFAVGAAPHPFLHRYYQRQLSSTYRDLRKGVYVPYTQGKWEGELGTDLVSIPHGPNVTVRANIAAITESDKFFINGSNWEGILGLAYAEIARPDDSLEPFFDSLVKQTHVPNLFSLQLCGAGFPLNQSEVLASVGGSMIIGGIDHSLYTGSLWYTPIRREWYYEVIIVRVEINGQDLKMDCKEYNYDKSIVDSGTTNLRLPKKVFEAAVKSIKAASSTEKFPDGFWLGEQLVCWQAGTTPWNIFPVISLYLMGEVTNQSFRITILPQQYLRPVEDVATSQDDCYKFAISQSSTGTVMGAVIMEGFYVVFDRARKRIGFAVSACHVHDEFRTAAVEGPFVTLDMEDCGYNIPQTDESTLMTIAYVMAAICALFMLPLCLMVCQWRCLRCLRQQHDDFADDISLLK
Assay: BACE FS1% Inhibition Assay (Example 160)
Format: biochemical
Conditions: 1 μM test compound
Method: The following reagents were used in this assay: sodium acetate, PEB8000 (Sigma), DMSO, HEPES, FS1 substrate [[…]], β-secretase (BACE) (Panvera), and 96-well plate (HE microplate, Molecular Devices). […] The FS1-substrate stock solution was prepared in DMSO as a 10 mg/mL solution. […] For test compounds, % inhibition was determined at each concentration as follows: [formula]
PROPERTY_LABEL: % Inhibition (FS)

Some solved cases for reference:
COC(=O)C(COCc1ccccc1)N(C)C(=O)CCC(C1CCCCC1)N1Cc2cc(Oc3ccccc3)ccc2N=C1N (stereo not shown)	97%
NC1=Nc2ccc(-c3ccccc3Cl)cc2CN1CCNC(=O)CCC(F)(F)F	77%
COc1ccccc1-c1ccc2c(c1)CN([C@@H](CCC(=O)N(C)Cc1cc(-c3ccccc3)on1)C1CCCCC1)C(N)=N2	<30%
CN(C(=O)CCC(C1CCCCC1)N1Cc2cc(Oc3ccccc3)ccc2N=C1N)c1ccc(C(=O)O)cc1 (stereo not shown)	<30%
NC1=Nc2ccc(-c3ccc4ccccc4c3)cc2CN1CCNC(=O)C1CCC1	<30%
COc1ccccc1-c1ccc2c(c1)CN([C@@H](CCC(=O)N(C)Cc1csc(-c3ccccc3)n1)C1CCCCC1)C(N)=N2	<30%

Next up:
For reference, reported % Inhibition (FS) for Cc1ccccc1-c1ccc2c(c1)CN(CCNC(=O)C1CCC(C(F)(F)F)CC1)C(N)=N2 (stereo not shown) stands at <30%

====

Provide the recorded % Inhibition (FS) for the entries that follow.
Molecular target: β-secretase (BACE) (Homo sapiens)
Construct: purchased Panvera
Test: BACE FS1% Inhibition Assay (Example 160)
Type: biochemical
Conditions: 1 μM test compound

Some solved cases for reference:
CN(Cc1cc(-c2ccccc2)on1)C(=O)CC[C@@H](C1CCCCC1)N1Cc2cc(-c3ccccc3F)ccc2N=C1N	<30%
CN(C(=O)CCC(C1CCCCC1)N1Cc2cc(Oc3ccccc3)ccc2N=C1N)C1CCC(c2nn[nH]n2)CC1 (stereo not shown)	<30%
NC1=Nc2ccc(Oc3ccccc3)cc2CN1CCNC(=O)C1(c2ccc(Cl)cc2)CCCC1	96%
CCCCCC(CCC(=O)NC1CCCCC1)N1Cc2cc(Oc3ccccc3)ccc2N=C1N (stereo not shown)	71%
NC1=Nc2ccc(-c3ccc4ccccc4c3)cc2CN1CCNC(=O)C1CCCC1	<30%

Hi team, please reply with % Inhibition (FS) for each item in this list.
1. CCCCC(CC)C(=O)NCCN1Cc2cc(-c3cnc4ccccc4c3)ccc2N=C1N (stereo not shown)
2. CC(C)(C)C(=O)NCCN1Cc2cc(-c3ccc4ccccc4c3)ccc2N=C1N

Result:
<30%
<30%
